These measurements were taken from patent US20250326748A1.

test system: HTT mRNA; assay: Splicing RT-qPCR assay, HTT canonical (CJ) and alternative (AJ) junction mRNA; type: cell-based, human; details: Homo sapiens, canonical junction mRNA, qPCR panel; read-out: HTT CJ (decrease in CJ mRNA levels, IC50)
Counter-ions that a name gives are not always drawn.
Assay Metric: IC50

Compound: C[C@@H]1CN(c2cnc3nc(-c4cc5cn(C)nc5cc4O)cc(Cl)c3c2)C[C@@H](C)N1 [Compound 243, hydrochloride]
Recorded Measurement: 1000 to 10000 nM
--
Compound: Cc1cc(-c2cc3cn(C)nc3c(C)c2O)nc2ncc(N3CCNCC3)cc12
Recorded Measurement: 100 to 1000 nM
--
Compound: Cn1cc2cc(-c3cnc4cc(C5CCNCC5)cc(F)c4n3)c(O)c(F)c2n1
Recorded Measurement: < 100 nM
--
Compound: C[C@@H]1CN(c2cnc3nc(-c4cc5cn(C)nc5cc4O)ccc3c2)C[C@H](C)N1
Recorded Measurement: 1000 to 10000 nM
--
Compound: Cc1c(O)c(-c2ccc3c(C(F)(F)F)c(N4CCNCC4)cnc3n2)cc2cn(C)nc12
Recorded Measurement: 1000 to 10000 nM
--
Compound: CN[C@@H]1CCN(c2cnc3nc(-c4cc5cn(C)nc5c(F)c4O)cc(Cl)c3c2)C1
Recorded Measurement: < 100 nM
--
Compound: Cn1cc2cc(-c3ccc4cc(N5CC[C@@H](NCC6CC6)C5)cnc4n3)c(O)c(F)c2n1
Recorded Measurement: < 100 nM
--
Compound: Cc1c(O)c(-c2cc(Cl)c3cc(N4CCNCC4)cnc3n2)cc2cn(C)nc12
Recorded Measurement: 100 to 1000 nM
